- Test system: OVCAR-3 ovarian
- Experiment notes: NCI tumour cell line growth inhibition, 48 h
Listing of entries alongside the reported TGI.

{"Molecule": "OCC(CN1CCCCC1)(CN1CCCCC1)CN1CCCCC1", "TGI": "> 100 µM"}
{"Molecule": "CC1(c2ccc(F)cc2)CC(c2ccc(F)cc2)=C(C#N)C(=C(C#N)C#N)N1 (stereo not drawn)", "TGI": "19.4 µM"}
{"Molecule": "Oc1ccccc1-c1nn(CNc2cccc(Cl)c2)c(=S)o1", "TGI": "> 100 µM"}

----------
TGI overview
- System: BT-549 breast
- Experiment notes: NCI tumour cell line growth inhibition, 48 h
Measured endpoint: TGI (µM)

{"Compound": "COc1ccc2cc(C(C)C(O)c3cc(F)c(F)c(F)c3F)ccc2c1 (stereo unspecified)", "Limit operator": ">", "Endpoint value": 100}
{"Compound": "O=C(CN1CCN(c2ncnc3ccccc23)CC1)Nc1ccc(Cl)cc1C(=O)c1ccccc1Cl", "Limit operator": "=", "Endpoint value": 0.618}
{"Compound": "CC(C)=CCC[C@@H](C)C1=C(O)C(Nc2ccccc2Br)=C(C)C(=O)C1=O", "Limit operator": "=", "Endpoint value": 50.1}
{"Compound": "CCOP(C)(=O)C(Cc1c[nH]c2ccccc12)C(=O)O (stereo unspecified)", "Limit operator": ">", "Endpoint value": 100}
{"Compound": "CC(C)(C)OC(=O)N(O)[C@@H]1C=C[C@H](n2cnc3c(N)ncnc32)C1", "Limit operator": ">", "Endpoint value": 100}
{"Compound": "CSc1c(C(=O)Nc2ccc(Cl)cc2)c(N)nn1-c1ccccc1", "Limit operator": ">", "Endpoint value": 100}
{"Compound": "CCOC(=O)Cc1nnc2c(-c3ccccc3)nc3ccccc3n12", "Limit operator": ">", "Endpoint value": 100}
{"Compound": "COc1cccc(C2c3cc4c(cc3OC(C)(O)C2C)OCO4)c1O (stereo unspecified)", "Limit operator": "=", "Endpoint value": 52.8}
{"Compound": "Cn1c2ccccc2c2c(-c3ccccc3)[n+]3ccccc3nc21", "Limit operator": "=", "Endpoint value": 54.7}
{"Compound": "COc1cc(/C=C2\\C[C@H]3[C@@H]4CC=C5C[C@@H](O)CC[C@]5(C)[C@H]4CC[C@]3(C)[C@H]2O)cc(OC)c1OC", "Limit operator": "=", "Endpoint value": 56.8}
{"Compound": "CC1(c2ccc(F)cc2)CC(c2ccc(F)cc2)=C(C#N)C(=C(C#N)C#N)N1 (stereo unspecified)", "Limit operator": "=", "Endpoint value": 53}
{"Compound": "Cc1cc2c(cc1Cl)SC1=CC(=O)N(c3ccccc3)C1=NS2(=O)=O", "Limit operator": "=", "Endpoint value": 65.3}
{"Compound": "COc1cc(N=CN(C)C)c2ncccc2c1", "Limit operator": ">", "Endpoint value": 100}
{"Compound": "N#Cc1c2ccc([N+](=O)[O-])cc2c(=O)n2c1sc1ccc(C(F)(F)F)cc12", "Limit operator": ">", "Endpoint value": 100}
{"Compound": "C[n+]1c(/C=C\\c2ccc(Cl)cc2)ccc2ccccc21", "Limit operator": "=", "Endpoint value": 76.4}
{"Compound": "CC(C)(C)NC(C1=CC(C)(C)c2ccccc2C1=O)c1ccccc1 (stereo unspecified)", "Limit operator": "=", "Endpoint value": 4.92}
{"Compound": "CC1=CC(=NC(=O)CBr)C=C/C1=N\\S(=O)(=O)c1ccccc1", "Limit operator": "=", "Endpoint value": 10.6}
{"Compound": "CCOC(=O)c1ccc(Nc2nc3cc(C(F)(F)F)ccc3nc2-c2ccccc2)cc1", "Limit operator": ">", "Endpoint value": 100}
{"Compound": "O=c1[nH]nc(Cc2ccccc2)n1/N=C/c1c(O)ccc2ccccc12", "Limit operator": ">", "Endpoint value": 100}
{"Compound": "CC(=N/NC(=S)N1CCCCC1)/C(=N\\NC(=S)N1CCCCC1)c1ccccc1", "Limit operator": "=", "Endpoint value": 3.56}
{"Compound": "CCCN(CCC)C(=O)C1=Cc2ccc(-c3ccc(C(=O)N4CCCC4)cc3)cc2N=C(N)C1", "Limit operator": "=", "Endpoint value": 33.3}
